All figures here come from PubChem BioAssay (NCATS).

- PROTOCOL_TEXT: Viability qHTS for spleen associated tyrosine kinase inhibitor (SYKi) naive MV4-11 cells (AID 1963823); note: nearly all actives have a fitted effect of over 40% in size
- SETTINGS: MV4-11 AML viability, CellTiter-Glo luminescence, 72 h; series mostly up to 45 µM
Inconclusive results are not listed. Calls of active or inactive are those of the source. Calls come from the whole dose curve; as a rule, active = well fitted cell-killing curve with a large enough effect; inconclusive = small, poorly fitted or top-dose-only effect, or effect the other way; inactive = no such curve, though single readings can be large or run the other way.
Labels: 1 = active, 0 = inactive

[
  {
    "COMPOUND": "CCN1CCCC(OC(=O)C(c2ccccc2)c2ccccc2)C1 (configuration not stated)",
    "LABEL_VALUE": 0
  },
  {
    "COMPOUND": "CC1(C)C(=O)CCC2(C)C1C(O)C=C1COC(=O)C12O (configuration not stated)",
    "LABEL_VALUE": 0
  },
  {
    "COMPOUND": "CC1=CCC[C@@H]2[C@@](C)(CCc3ccoc3)[C@H](C(=O)O)CC[C@@]12C",
    "LABEL_VALUE": 1
  },
  {
    "COMPOUND": "COc1cc(C)c(C(=O)Oc2cc(C)c(C(=O)Oc3cc(C)c(C(=O)NC(C)C(=O)O)c(O)c3)c(O[C@@H]3O[C@H](CO)[C@@H](O)[C@H](O)[C@H]3OC(C)=O)c2)c(OC)c1 (some centres not stated)",
    "LABEL_VALUE": 0
  },
  {
    "COMPOUND": "CC#CCn1c(N2CCCC(N)C2)nc2c1c(=O)n(Cc1nc(C)c3ccccc3n1)c(=O)n2C (configuration not stated)",
    "LABEL_VALUE": 0
  },
  {
    "COMPOUND": "COc1ccc2cc1Oc1cc3c(cc1OC)CC[N+](C)(C)[C@H]3Cc1ccc(cc1)Oc1c(OC)c(OC)cc3c1[C@@H](C2)[N+](C)(C)CC3",
    "LABEL_VALUE": 0
  },
  {
    "COMPOUND": "C[C@]12CC[C@@H]3c4ccc(O)cc4C[C@@H](CCCCCCCCCS(=O)CCCC(F)(F)C(F)(F)F)[C@H]3[C@@H]1CC[C@@H]2O (some centres not stated)",
    "LABEL_VALUE": 0
  },
  {
    "COMPOUND": "COc1cc(F)c(F)c(Nc2ccc(I)cc2F)c1NS(=O)(=O)C1(C[C@H](O)CO)CC1",
    "LABEL_VALUE": 1
  },
  {
    "COMPOUND": "C=C/C=C/[C@@H]1OC[C@H](/C=C/C=C/C)[C@H]1O",
    "LABEL_VALUE": 0
  },
  {
    "COMPOUND": "CCN1/C(=C/C(C)=O)Sc2ccc(OC)cc21",
    "LABEL_VALUE": 1
  },
  {
    "COMPOUND": "CCOC(=O)C(CCc1ccccc1)NC(C)C(=O)N1C(=O)N(C)CC1C(=O)O (configuration not stated)",
    "LABEL_VALUE": 0
  },
  {
    "COMPOUND": "C[C@H](Oc1cc(-n2cnc3ccc(CN4CCN(C)CC4)cc32)sc1C(N)=O)c1ccccc1C(F)(F)F",
    "LABEL_VALUE": 1
  },
  {
    "COMPOUND": "O=C(C1CC1)N1CC[C@@H](Cc2n[nH]c(=O)n2-c2ccc(-c3ccc4occc4c3)cc2)C1",
    "LABEL_VALUE": 0
  },
  {
    "COMPOUND": "CCN1CCN(Cc2ccc(NC(=O)Nc3ccc(Oc4cc(NC)ncn4)cc3)cc2C(F)(F)F)CC1",
    "LABEL_VALUE": 0
  },
  {
    "COMPOUND": "C[C@@H](c1ncncc1F)C(O)(Cn1cncn1)c1ccc(F)cc1F (some centres not stated)",
    "LABEL_VALUE": 0
  },
  {
    "COMPOUND": "CC(C)c1ccc(NC(=O)c2cccs2)c(-c2nc3ccccc3[nH]c2=O)c1",
    "LABEL_VALUE": 1
  },
  {
    "COMPOUND": "CC1(C)[C@@H](O)CC[C@]2(C)[C@H]3C(=O)C=C4[C@@H]5C[C@@](C)(C(=O)O)CC[C@]5(C)CC[C@@]4(C)[C@]3(C)CC[C@@H]12",
    "LABEL_VALUE": 0
  }
]

---

- PROTOCOL_TEXT: Cellular viability qHTS for adrenocortical cancer (ACC) cell line NCI-H295R (AID 1963990); note: nearly all actives have a fitted effect of over 60% in size
- SETTINGS: CellTiter-Glo ATP luminescence, 48 h; series mostly up to 46.1 µM
Records with an inconclusive call do not appear. Active and inactive are the calls of the source. Calls follow the shape of the dose curve; as a rule, active = well fitted cell-killing curve with a large enough effect; inconclusive = small, poorly fitted or top-dose-only effect; inactive = flat fitted curve, though single readings scatter.
Labels: active, inactive

[
  {
    "COMPOUND": "N#Cc1ccnc(N2C(=O)CC[C@H]2C(=O)N(c2cncc(F)c2)[C@H](C(=O)NC2CC(F)(F)C2)c2ccccc2Cl)c1",
    "LABEL_VALUE": "inactive"
  },
  {
    "COMPOUND": "CN1CCN(c2ccc3nc(-c4c(N)c5c(F)cccc5[nH]c4=O)[nH]c3c2)CC1",
    "LABEL_VALUE": "active"
  },
  {
    "COMPOUND": "C/C=C1\\[C@H]2C=C(C)C[C@]1(N)c1ccc(=O)[nH]c1C2",
    "LABEL_VALUE": "inactive"
  },
  {
    "COMPOUND": "CCN1CCN(c2cc3c(cc2F)c(=O)c(C(=O)O)cn3C2CC2)CC1",
    "LABEL_VALUE": "inactive"
  },
  {
    "COMPOUND": "CN1CC(=O)NC1=NC(=O)Nc1cccc(Cl)c1",
    "LABEL_VALUE": "inactive"
  },
  {
    "COMPOUND": "COC(=O)Nc1cc(Nc2cc(NC3CC3)c3ncc(C#N)n3n2)c(Cl)c(N2CCN(C)CC2)c1",
    "LABEL_VALUE": "active"
  },
  {
    "COMPOUND": "C1=C/COCc2cc(ccc2OCCN2CCCC2)Nc2nccc(n2)-c2cccc(c2)COC/1",
    "LABEL_VALUE": "active"
  },
  {
    "COMPOUND": "O=c1ccn([C@@H]2O[C@H](CO)[C@H](O)[C@@H]2F)c(=O)[nH]1",
    "LABEL_VALUE": "inactive"
  },
  {
    "COMPOUND": "FC(F)(F)c1ccc(Nc2nc3ccc(Oc4ccnc(-c5ncc(C(F)(F)F)[nH]5)c4)cc3[nH]2)cc1",
    "LABEL_VALUE": "active"
  },
  {
    "COMPOUND": "CN1C(=O)CC[C@H]1c1cccnc1",
    "LABEL_VALUE": "inactive"
  },
  {
    "COMPOUND": "CC(=O)Oc1ccc(C(=C2CCCCC2)c2ccc(OC(C)=O)cc2)cc1",
    "LABEL_VALUE": "inactive"
  },
  {
    "COMPOUND": "CCCCCCCCCCCCCCCCOCCCOP(=O)(O)COC(CO)Cn1ccc(N)nc1=O (centres undefined)",
    "LABEL_VALUE": "inactive"
  },
  {
    "COMPOUND": "CCCCCOC(=O)Nc1nc(=O)n([C@@H]2O[C@H](C)[C@@H](O)[C@H]2O)cc1F",
    "LABEL_VALUE": "inactive"
  },
  {
    "COMPOUND": "NS(=O)(=O)c1cc2c(cc1Cl)NC(C(Cl)Cl)NS2(=O)=O (centres undefined)",
    "LABEL_VALUE": "inactive"
  },
  {
    "COMPOUND": "COc1cc(C(=O)O)ccc1NC(=O)[C@@H]1N[C@@H](CC(C)(C)C)[C@](C#N)(c2ccc(Cl)cc2F)[C@H]1c1cccc(Cl)c1F",
    "LABEL_VALUE": "inactive"
  },
  {
    "COMPOUND": "Nc1ccc(C(=O)O)c(O)c1",
    "LABEL_VALUE": "inactive"
  },
  {
    "COMPOUND": "CC(=O)O[C@]1(C(C)=O)CC[C@H]2[C@@H]3C=C(Cl)C4=CC(=O)CC[C@]4(C)[C@H]3CC[C@@]21C",
    "LABEL_VALUE": "inactive"
  },
  {
    "COMPOUND": "CN[C@@H]1[C@@H](O)[C@@H](O[C@@H]2[C@H](O)[C@H](O[C@H]3OC(CN)=CC[C@H]3N)[C@@H](N)C[C@H]2N)OCC1(C)O (some centres undefined)",
    "LABEL_VALUE": "inactive"
  },
  {
    "COMPOUND": "C[C@@H](c1ncncc1F)C(O)(Cn1cncn1)c1ccc(F)cc1F (some centres undefined)",
    "LABEL_VALUE": "inactive"
  },
  {
    "COMPOUND": "CCOC(=O)[C@H](CCc1ccccc1)N[C@@H](C)C(=O)N1[C@H](C(=O)O)C[C@@H]2CCC[C@@H]21",
    "LABEL_VALUE": "inactive"
  },
  {
    "COMPOUND": "O=C(O)CCC(=O)Nc1ccc(S(=O)(=O)Nc2nccs2)cc1",
    "LABEL_VALUE": "inactive"
  },
  {
    "COMPOUND": "Cc1[nH]cnc1CN1CCN(C(=O)N[C@@H](CC(C)C)C(=O)O)[C@@H](Cc2ccccc2)C1=O",
    "LABEL_VALUE": "inactive"
  },
  {
    "COMPOUND": "CC(C)Cc1ccc([C@@H](C)C(=O)NS(C)(=O)=O)cc1",
    "LABEL_VALUE": "inactive"
  },
  {
    "COMPOUND": "O=c1[nH]c(=O)c2[nH]c(=O)[nH]c2[nH]1",
    "LABEL_VALUE": "active"
  },
  {
    "COMPOUND": "Cc1ccc(-n2c(C)cc(-c3nnc4n3CCCCC4)c2C)cc1",
    "LABEL_VALUE": "inactive"
  },
  {
    "COMPOUND": "Cc1onc(-c2ccccc2)c1C(=O)Cl",
    "LABEL_VALUE": "inactive"
  },
  {
    "COMPOUND": "O=S(=O)(O)c1ccc(O)cc1",
    "LABEL_VALUE": "inactive"
  },
  {
    "COMPOUND": "COCCCN1CCC(NC(=O)c2cc(Cl)c(N)c3c2OCC3)CC1",
    "LABEL_VALUE": "inactive"
  },
  {
    "COMPOUND": "Clc1ccc(-c2nc3sccn3c2/C=N/OCc2ccc(Cl)c(Cl)c2)cc1",
    "LABEL_VALUE": "inactive"
  },
  {
    "COMPOUND": "COc1cc2c(cc1OC)-c1cc(=Nc3c(C)cc(C)cc3C)n(C)c(=O)n1CC2",
    "LABEL_VALUE": "active"
  },
  {
    "COMPOUND": "CC(=O)OCC(=O)[C@@]1(O)[C@H](C)C[C@H]2[C@@H]3C=C(C)C4=Cc5c(cnn5-c5ccccc5)C[C@]4(C)[C@@H]3[C@@H](O)C[C@@]21C",
    "LABEL_VALUE": "active"
  },
  {
    "COMPOUND": "O=C([C@@H](Cc1cccc(C(F)(F)F)c1)NS(=O)(=O)c1cc(F)c2c(c1)CCNC2)N1CCCC1",
    "LABEL_VALUE": "inactive"
  },
  {
    "COMPOUND": "CC(Cc1ccccc1)(NC(=O)CN)c1ccccc1 (centres undefined)",
    "LABEL_VALUE": "inactive"
  },
  {
    "COMPOUND": "O=C(c1ccc(F)cc1)C1CCN(CCn2c(=O)[nH]c3ccccc3c2=O)CC1",
    "LABEL_VALUE": "inactive"
  },
  {
    "COMPOUND": "C[C@@H]1CC(=O)NN=C1c1ccc(NN=C(C#N)C#N)cc1",
    "LABEL_VALUE": "inactive"
  },
  {
    "COMPOUND": "CN(CC1(C)CCCO1)S(=O)(=O)c1ccc(Cl)c(S(N)(=O)=O)c1 (centres undefined)",
    "LABEL_VALUE": "inactive"
  },
  {
    "COMPOUND": "COC(=O)C1=C(C)NC(C)=C(C(=O)O[C@@H]2CCCN(Cc3ccccc3)C2)[C@@H]1c1cccc([N+](=O)[O-])c1",
    "LABEL_VALUE": "active"
  },
  {
    "COMPOUND": "CN1CCC(=C2c3ccccc3CCc3cccnc32)CC1",
    "LABEL_VALUE": "inactive"
  },
  {
    "COMPOUND": "COc1ccc(CNC(=O)c2cc(-c3cncc(Cl)c3)cnc2-c2ccccn2)nc1OC",
    "LABEL_VALUE": "inactive"
  }
]
